system: human colorectal adenocarcinoma HT-29; test: Cell viability assay; assay type: cell-based; conditions: read-out: IC50 HT-29, dark; dark; 72 h, WST-1; mean ± SEM
Endpoint Name: IC50

Field IC50 (entry N.N.[Cl][Pt][Cl] [Cisplatin, cisplatin] ) reads > 100 µM
